target: Protein Mdm4 (Homo sapiens) + E3 ubiquitin-protein ligase Mdm2 (Homo sapiens) (UniProt O15151+Q00987); assay: inhibitors of human Mdm2-MdmX association, primary screen, cell-based, luminescence, split luciferase, SaOS-2, uHTS (AID 485346); conditions: SaOS-2 split-luciferase Mdm2/MdmX complementation, at 8 µM, active compounds read high
Sequence (O15151 whole entry, looked up): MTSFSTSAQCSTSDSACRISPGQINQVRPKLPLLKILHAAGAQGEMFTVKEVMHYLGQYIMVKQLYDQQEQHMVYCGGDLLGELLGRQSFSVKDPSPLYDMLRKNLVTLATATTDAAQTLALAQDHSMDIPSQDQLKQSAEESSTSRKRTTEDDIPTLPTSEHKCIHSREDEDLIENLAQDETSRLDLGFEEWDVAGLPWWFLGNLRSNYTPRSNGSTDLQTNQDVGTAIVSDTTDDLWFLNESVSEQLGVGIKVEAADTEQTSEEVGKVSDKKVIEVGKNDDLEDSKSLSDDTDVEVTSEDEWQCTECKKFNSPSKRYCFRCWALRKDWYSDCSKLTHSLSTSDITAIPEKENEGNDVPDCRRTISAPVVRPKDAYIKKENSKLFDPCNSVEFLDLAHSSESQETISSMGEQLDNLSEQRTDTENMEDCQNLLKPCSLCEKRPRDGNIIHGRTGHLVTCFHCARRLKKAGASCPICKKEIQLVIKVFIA
Sequence (Q00987 whole entry, looked up): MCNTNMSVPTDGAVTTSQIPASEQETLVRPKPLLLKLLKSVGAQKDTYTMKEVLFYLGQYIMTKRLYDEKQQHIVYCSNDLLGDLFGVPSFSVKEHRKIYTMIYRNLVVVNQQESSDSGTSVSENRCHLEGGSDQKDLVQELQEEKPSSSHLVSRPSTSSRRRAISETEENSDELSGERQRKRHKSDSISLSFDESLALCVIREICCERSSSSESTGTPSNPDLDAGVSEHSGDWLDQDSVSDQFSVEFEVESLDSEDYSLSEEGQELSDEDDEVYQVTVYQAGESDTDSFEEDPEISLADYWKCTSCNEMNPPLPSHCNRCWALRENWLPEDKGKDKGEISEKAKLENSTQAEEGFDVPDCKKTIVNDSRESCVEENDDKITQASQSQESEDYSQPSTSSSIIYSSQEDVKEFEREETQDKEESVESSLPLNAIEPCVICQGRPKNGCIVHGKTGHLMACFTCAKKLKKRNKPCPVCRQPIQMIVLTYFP
The campaign covered roughly 330,000 compounds. About 10,000 (3%) were called active. Many of the other results were omitted from the sample, so actives are more common in it than they were.
Record form. Attribute: inhibition. Fill in for each entry.
Numbers only; they are read as %.

Requested read-out: inhibition. Entry: `C=CCOC(=O)C1=C[C@H](c2ccc(Br)cc2)C[C@H](OCCCCO)O1`
25.6

Given the molecule `c1csc(-c2nnc(COc3ccc4c(c3)OCO4)o2)c1` , what is its reported inhibition?
-40.3

Item CCOC(=O)C1=C(C)c2ccccc2OC1(C)C(=O)OCC (stereo unspecified) has what recorded inhibition?
11.2

Suppose we examine the molecule `COc1ccc(C)c(Cn2c(-c3nonc3N)nc3ccccc32)c1` ; what inhibition value has been reported?
45.6

Field request: inhibition | item: CC(OC(=O)c1cc2ccccc2o1)C(=O)Nc1ccc(N2CCOCC2)cc1 (stereo unspecified)
11.3

Looking for the measured inhibition of `O=C(COC(=O)c1ccccc1)c1ccc2c(c1)OCCO2` , can you help?
35.8

Quick one: inhibition for `CCOC(=O)Cc1csc(SCC(=O)Nc2ccc(C)cc2F)n1` ?
7.22

# get_value(readout='inhibition', item= `O=[N+]([O-])c1ccccc1/C=C/CN1CCC(O)CC1` )
-3.09

Give the measured inhibition of O=[N+]([O-])c1ccccc1/C=C/CN1CCCC(CO)C1 (stereo unspecified) .
3.12

Which inhibition reading was recorded for the molecule CC(NC(=O)c1cccc(S(=O)(=O)N2CCc3ccccc3C2)c1)c1ccco1 (stereo unspecified) ?
3.48

Using the record for COc1ccc(C(=O)OCC(=O)NCC2CCCO2)cc1[N+](=O)[O-] (stereo unspecified) , report its inhibition.
-2.37

* * *

target: Protein Mdm4 (Homo sapiens) + E3 ubiquitin-protein ligase Mdm2 (Homo sapiens) (UniProt O15151+Q00987); assay: inhibitors of human Mdm2-MdmX association, primary screen, cell-based, luminescence, split luciferase, SaOS-2, uHTS (AID 485346); conditions: SaOS-2 split-luciferase Mdm2/MdmX complementation, at 8 µM
Hit rate of the full screen: of about 330,000 compounds, about 10,000 (3%) were called active.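 Rule for the calls: active = inhibition of at least 50% at 8 µM in the primary screen; inactive = the rest.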 Shown is part of a subset that was picked to be rich in actives.
Thanks in advance; please answer with one of these: Yes (active), No (inactive)

State the result this test recorded for `CC(=O)c1ccc2c(c1)c1ccccc1n2CC(C)C` .
No

Just curious, what result did CCCCN(CCCC)CC(O)Cn1c2ccccc2c(=O)c2ccccc21 (stereo unspecified) get here?
No

What is the recorded call for this compound in the test? c1ccc(-c2cc3c(NCC4COc5ccccc5O4)ncnc3s2)cc1 (stereo unspecified)
No

Record request — test call for `Cc1ccc(S(=O)(=O)NCCC(=O)OCC(=O)N(C)c2ccccc2)cc1`
No

Tell me the assay call for CS(=O)(=O)N(CC(O)Cn1c2ccccc2c2ccccc21)c1cccc2ccccc12 (stereo unspecified) please.
Yes

Please indicate how the test categorized `COc1ccccc1OCCCC(=O)Nc1ccc2c(c1)OCCO2` .
No

* * *

target: Protein Mdm4 (Homo sapiens) + E3 ubiquitin-protein ligase Mdm2 (Homo sapiens) (UniProt O15151+Q00987); assay: inhibitors of human Mdm2-MdmX association, primary screen, cell-based, luminescence, split luciferase, SaOS-2, uHTS (AID 485346); settings: SaOS-2 split-luciferase Mdm2/MdmX complementation, at 8 µM, active compounds read high
Out of some 330,000 compounds screened, about 10,000 (3%) were called active. The sample as a whole holds a higher share of actives than the screen did.
property-measured: inhibition (%)
Reply with just the number (in %).

Record request: inhibition value, item `COc1cc(OC)c2c(-c3cccc(-c4cccc(N)c4)c3)cc(=O)oc2c1`
75

Form field: reported inhibition of CCOC(=O)C1=CN(Cc2ccc(Br)cc2)S(=O)(=O)NC1C (stereo not given)
12.1

Need inhibition, item `CCc1cc2c(=O)n(-c3ccccc3)c(SCC(=O)O)nc2s1`
0.424

Form field: reported inhibition of `Cc1c(Cl)c([N+](=O)[O-])nn1Cc1ccc(C(=O)N/N=C\c2cc(Cl)ccc2O)o1`
68.9

inhibition for `O=C1[C@H]2[C@@H](c3ccc(Cl)cc3)N3C(=O)N(c4cccc(F)c4)C(=O)[C@@]3(Cc3ccccc3)[C@H]2C(=O)N1C1CCCCC1` ?
4.69

Name the reported inhibition value associated with the molecule CCOc1ccc(C2c3[nH]c4ccccc4c3CCN2Cc2cn(CC)nc2C)cc1 (stereo not given)
12.1

Find the recorded inhibition belonging to `COc1ccc(-c2c(C)cc3oc(=O)cc(-c4ccccc4)c3c2C)cc1F` and report it.
2.64

Fill in: inhibition of `COC(=O)c1ccc(NC(=O)c2ccccc2NS(=O)(=O)c2ccccc2)cc1` is ___
36.9

Entry `CCOC(=O)c1ccc(NC(=O)CCn2c(=O)oc3ccccc32)cc1` : reported inhibition = ?
8.91

# input molecule: `COc1cc(OC)c(S(=O)(=O)Nc2ccccc2C(=O)O)cc1S(=O)(=O)Nc1ccccc1C(=O)O` ; wanted: its inhibition
13.2

What value of measured inhibition is listed for Cc1ccc(CN2CCC(N3CCC(C(=O)NCC4CCCO4)CC3)CC2)o1 (stereo not given) ?
1.75

What measured inhibition goes with CCCCC(c1nnnn1CS(=O)(=O)c1ccc(C)cc1)N1CCC(C(N)=O)CC1 (stereo not given) ?
20

Sample `Cc1ccccc1OCCOc1ccc([N+](=O)[O-])cc1/C=N/n1cnnc1` — what was its inhibition?
58.7

inhibition lookup needed for `COc1ccc(N2CCN(CCNC(=O)Nc3cc(Cl)ccc3Cl)CC2)cc1` , thanks.
14.4

What does the data say about its inhibition? Entry: c1ccc(C2c3[nH]c4ccccc4c3CCN2Cc2cccn2-c2cccnc2)nc1 (stereo not given)
5.09

What measured inhibition goes with `CCc1nnc(NC(=O)CCC(=O)N2CCN(c3cc(C)ccc3C)CC2)s1` ?
13.7

Which inhibition value belongs to `CCN1C(=S)N[C@@H](CCc2ccccc2)[C@H](C(=O)OC)[C@H]1C` ?
6.92

Look at this molecule and give its reported inhibition. `O=C(COC(=O)/C=C/c1ccc(Br)o1)Nc1cccc(S(=O)(=O)N2CCOCC2)c1`
26.4

Looking for the measured inhibition of `Cc1ccc(NN=Nc2nc3c([nH]2)c(=O)n(C)c(=O)n3C)cc1` , can you help?
-16.4

What value of inhibition has been reported for the following molecule? `O=C(CN1C(=O)c2cccnc2Oc2ccc(Cl)cc21)Nc1ccc(F)cc1`
7.52

* * *

target: Protein Mdm4 (Homo sapiens) + E3 ubiquitin-protein ligase Mdm2 (Homo sapiens) (UniProt O15151+Q00987); experiment: inhibitors of human Mdm2-MdmX association, primary screen, cell-based, luminescence, split luciferase, SaOS-2, uHTS (AID 485346); settings: SaOS-2 split-luciferase Mdm2/MdmX complementation, at 8 µM, active compounds read high
Out of some 330,000 compounds screened, about 10,000 (3%) were called active. This excerpt belongs to a sample that is enriched for actives.
Please respond with reported inhibition for every item in the list.
Response body: numeric value in %, unit text excluded.

Item under review: `Brc1ccc2ncnc(NCc3cccnc3)c2c1` . Reported inhibition?
73.1

Give its inhibition value. Item: Cc1c(NC(=O)C(C)OC(=O)c2ccccc2O)c(=O)n(-c2ccccc2)n1C (configuration not stated)
13.1

Return reported inhibition; argument: `COC(=O)c1sccc1NC(=O)COc1ccc(Cl)cc1`
-7.02

inhibition lookup needed for `CC1CCN(C(=O)c2cc3nc(C4CC4)cc(C(F)(F)F)n3n2)CC1` , thanks.
0.061

Query: inhibition; subject: `Cc1cnc(C(=O)OCC(=O)Nc2ccc(Cl)cc2Cl)cn1`
21.4

// query inhibition value for entry `Cc1cc(NCc2cccnc2)no1`
0.68

# get_value(readout='inhibition', item= O=C1CSC(c2ccc(Cl)cc2)N1 (configuration not stated) )
-16.7

What does the record list as inhibition for `Nc1cc(N2CCCCCC2)c2nonc2c1[N+](=O)[O-]` ?
25.5

What does the data say about its inhibition? Entry: `COc1ccc(Cl)cc1NC(=O)CN(C)Cc1ccc(OC)c(OC)c1`
29.4

So what does the record say about inhibition for `NC(=S)N/N=C/c1coc2cc(Cl)ccc2c1=O` ?
-1.23

Param item = `O=C(N/N=C/c1ccc(Cl)cc1)c1nc2ccc([N+](=O)[O-])cc2c(=O)[nH]1` ; retrieve measured inhibition.
6.69

Endpoint output: inhibition of `Cc1csc(=O)n1CCC(=O)OCC(=O)NNC(=O)c1ccc(Br)cc1` . Value?
8.79

Numbers sourced from PubChem BioAssay AID485346.
